- Assay remarks: Liver microsomes metabolic stability assay, human
- Type: in vitro ADME
- Conditions: human liver microsomes 0.5 mg/mL, 37° C., read-out: t1/2 Human
Reported metric: half-life at 2 μM (h)
One number for each entry, in h.

>  <Compound>
Fc1ccc(F)c([C@H]2CCCN2c2ccn3ncc(-c4nnc(-c5ccc(N6CCNCC6)cc5)[nH]4)c3n2)c1

>  <Output unit>
h

>  <half-life at 2 μM>
7.22

$$$$
>  <Compound>
Fc1ccc(F)c([C@H]2CCCN2c2ccn3ncc(-c4nc5cc6c(cc5[nH]4)OC(F)(F)O6)c3n2)c1

>  <Output unit>
h

>  <half-life at 2 μM>
2.26

$$$$
>  <Compound>
Fc1ccc(F)c([C@H]2CCCN2c2ccn3ncc(-c4nc5ccc(OC(F)(F)F)cc5o4)c3n2)c1

>  <Output unit>
h

>  <half-life at 2 μM>
9.62

$$$$
>  <Compound>
N#Cc1cc2[nH]c(-c3cnn4ccc(N5CCC[C@@H]5c5cc(F)ccc5F)nc34)nc2cc1F

>  <Output unit>
h

>  <half-life at 2 μM>
0.245

$$$$

For every record below, what is its half-life at 2 μM?
1. COc1cc2[nH]c(-c3cnn4ccc(N5CCC[C@@H]5c5cc(F)ccc5F)nc34)nc2cc1Cl
2. OC1CC(c2nnc(-c3cnn4ccc(N5CCC[C@@H]5c5cc(F)ccc5F)nc34)[nH]2)C1 (stereo partly drawn)
3. Fc1ccc(F)c([C@H]2CCCN2c2ccn3ncc(-c4nc5cc(Cl)c(OC(F)(F)F)cc5[nH]4)c3n2)c1
4. CSc1cc2nc(-c3cnn4ccc(N5CCC[C@@H]5c5cc(F)ccc5F)nc34)[nH]c2cc1C#N
5. N#Cc1cc2nc(-c3cnn4ccc(N5CCC[C@@H]5c5cc(F)ccc5F)nc34)[nH]c2cc1C#N
6. CC(C)(O)Cc1nnc(-c2cnn3ccc(N4CCC[C@@H]4c4cc(F)ccc4F)nc23)[nH]1
7. Fc1ccc(F)c([C@H]2CCCN2c2ccn3ncc(-c4nc5cnccc5[nH]4)c3n2)c1

stdout:
1. 1.38
2. 1.41
3. 1.13
4. 0.547
5. 19.2
6. 1.38
7. 1.83

For every record below, what is its half-life at 2 μM?
1. CS(=O)(=O)c1cc2nc(-c3cnn4ccc(N5CCC[C@@H]5c5cc(F)ccc5F)nc34)[nH]c2cc1C#N
2. C[C@@](O)(c1nnc(-c2cnn3ccc(N4CCC[C@@H]4c4cc(F)ccc4F)nc23)[nH]1)C(F)(F)F
3. Fc1ccc(F)c([C@H]2CCCN2c2ccn3ncc(-c4nc5cc(OC(F)(F)F)ccc5[nH]4)c3n2)c1
4. C[S+]([O-])c1cc2nc(-c3cnn4ccc(N5CCC[C@@H]5c5cc(F)ccc5F)nc34)[nH]c2cc1C#N (stereo partly drawn)

stdout:
[0.555, 1, 1.36, 0.509]
